biological target: hT2R54 (Homo sapiens, UniProt P59534); construct: expressed in transfected cells; it overexpresses a promiscuous G protein; test: Cell-based assay for measuring hT2R54 inhibition (FLIPR calcium, Fluo4AM, acetaminophen as bitter agonist); details: Table 8; read-out: hT2R54 IC50
pIC50: −log10 of the molar value.
Measured Attribute: pIC50

• CC(=O)c1cc2c(cc1NC(=O)CC1CCN(C(=O)c3cnn(C)c3)CC1)OCO2 [compound 201] = 6.47
• CCOC(=O)N1CCC(CC(=O)Nc2cc3c(cc2C(C)=O)OCO3)CC1 [compound 240] = 7.47
• COCc1ccc(C(=O)N2CCC(CC(=O)Nc3cc4c(cc3C(C)=O)OCCO4)CC2)o1 [compound 489] = 6.82
• CC(=O)c1cc2c(cc1NC(=O)CC1CN(C(C)=O)CCO1)OCO2 (stereo not shown) [compound 509] = 6.74
• CC(=O)c1cc2c(cc1NC(=O)CC1CCN(C(=O)c3ccc(C)o3)CC1)OCO2 [compound 467] = 7.24

P: COCCOCC(=O)N1CCC(CC(=O)Nc2cc3c(cc2C(C)=O)OCO3)CC1 [compound 470]
Q: CC(=O)c1cc2c(cc1NC(=O)CC1CCN(C(=O)c3cccnc3)CC1)OCCO2 [compound 485]
R: CC(=O)c1cc2c(cc1NC(=O)CC1CCCN(C(=O)C3CCCO3)C1)OCO2 (stereo not shown) [compound 209]
S: CC(=O)c1cc2c(cc1NC(=O)CC1CCN(C(=O)c3c[nH]c(C)n3)CC1)OCO2 [compound 463]
INPUT: Kindly order the items shown according to pIC50, from the highest value down. Your task in answering is to list the labels in the requested order.
OUTPUT: R, Q, S, P

1: CC(=O)c1cc2c(cc1NC(=O)CC1CCCN(C(=O)OC(C)C)C1)OCO2 (stereo not shown) [compound 215]
2: CC(=O)c1cc2c(cc1NC(=O)CC1CCN(C(=O)Cc3cccc(O)c3)CC1)OCO2 [compound 253]
INPUT: Lab note: check whether 1 or 2 shows the higher recorded pIC50. Pick one and reply with its label.
OUTPUT: 1

====

Biological target: hT2R54 (Homo sapiens)
Construct: expressed in transfected cells; it overexpresses a promiscuous G protein
Sequence (P59534 1-338): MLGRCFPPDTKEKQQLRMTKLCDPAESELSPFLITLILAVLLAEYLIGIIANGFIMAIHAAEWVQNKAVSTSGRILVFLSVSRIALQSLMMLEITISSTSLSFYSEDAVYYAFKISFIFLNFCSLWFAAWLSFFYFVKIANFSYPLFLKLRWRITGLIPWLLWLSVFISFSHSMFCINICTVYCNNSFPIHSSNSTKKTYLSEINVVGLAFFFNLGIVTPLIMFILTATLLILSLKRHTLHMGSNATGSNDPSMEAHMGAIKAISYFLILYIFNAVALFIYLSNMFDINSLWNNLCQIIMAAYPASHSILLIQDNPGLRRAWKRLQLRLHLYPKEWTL
Test: Cell-based assay for measuring hT2R54 inhibition (FLIPR calcium, Fluo4AM, acetaminophen as bitter agonist)
Settings: Table 2; cells stably expressing hT2R54 and a promiscuous G protein; read-out: hT2R54 IC50
Method: Cells stably expressing hT2R54 and a promiscuous G protein were seeded in 384 well plates 24 hours prior to the experiment. […] Baseline was recorded for 10 seconds, then 25 μl of […] was added onto 25 μl of cells and resulting changes in fluorescence were monitored over an additional 3 minutes. […] The ability of a test compound that blocks bitter taste elicited through hT2R54 was measured in this assay, as follows. […]
pIC50: −log10 of the molar value.
Measured Attribute: pIC50

Some compounds with known pIC50 results, for comparison:
* CC(=O)c1cc2c(cc1NC(=O)CN1CCN(C(=O)c3n[nH]cc3C)CC1)OCO2 | 7.05
* CC(=O)c1cc2c(cc1NC(=O)CN1CCN(C(=O)CC3CC3)CC1)OCO2 | 7.62
* CC(=O)c1cc2c(cc1NC(=O)CN1CCN(C(=O)Cc3ccc(F)cc3)CC1)OCO2 | 6.40
* COc1cc2c(cc1NC(=O)CN1CCN(C(=O)c3nc(C)c[nH]3)CC1)OCO2 [compound 306] | 7.11
* CC(=O)c1cc2c(cc1NC(=O)CN1CCN(C(=O)c3cccc(F)c3)CC1)OCO2 | 7.59

I: COCc1cccc(C(=O)N2CCN(CC(=O)Nc3cc4c(cc3C(C)=O)OCO4)CC2)n1
II: COc1cc2c(cc1NC(=O)CN1CCN(C(=O)c3cc[nH]n3)CC1)OCO2
INPUT: Lab note: check whether I or II shows the higher recorded pIC50. Pick one and reply with its label.
OUTPUT: I

====

biological target: hT2R54 (Homo sapiens, UniProt P59534); construct: expressed in transfected cells; it overexpresses a promiscuous G protein; test: Cell-based assay for measuring hT2R54 inhibition (FLIPR calcium, Fluo4AM, acetaminophen as bitter agonist); conditions: Table 4; cells stably expressing hT2R54 and a promiscuous G protein; read-out: hT2R54 IC50
Measured Attribute: IC50 (nM)

Some compounds with known IC50 results, for comparison:
- CCOC(=O)C1CN(C(=O)OC(C)(C)C)CCN1CC(=O)Nc1cc2c(cc1C(C)=O)OCO2 (stereo not shown) [compound 428]: 650
- CC(=O)c1cc2c(cc1NC(=O)CN1CCC(NC(=O)OC(C)(C)C)CC1)OCO2 [compound 430]: 162
- COc1cc2c(cc1NC(=O)CN1CCc3ccccc31)OCO2 [compound 150]: 393
- COc1cc2c(cc1NC(=O)CN1CCCC(OC)C1)OCO2 (stereo not shown) [compound 145]: 575
- CCOC(=O)CCN(C)CC(=O)Nc1cc2c(cc1C(C)=O)OCO2 [compound 133]: 113
- COC(=O)c1cc2c(cc1NC(=O)CN1CCC(O)CC1)OCO2 [compound 434]: 248
- CC(=O)c1cc2c(cc1NC(=O)CN1CCSCC1)OCO2 [compound 422]: 50
- COC(=O)c1cc2c(cc1NC(=O)CN1CCC(OC)CC1)OCO2 [compound 435]: 419
- CCOC(=O)C1CCCN(CC(=O)Nc2cc3c(cc2Cl)OCCO3)C1 (stereo not shown) [compound 151]: 152
- CC(=O)c1cc2c(cc1NC(=O)CCN1CCOCC1)OCO2 [compound 432]: 1920

a: CCOC(=O)C1CN(CC(=O)Nc2cc3c(cc2OC)OCO3)CCO1 (stereo not shown) [compound 444]
b: CCOC(=O)C1CCN(CC(=O)Nc2cc3c(cc2C(C)=O)OCO3)C1 (stereo not shown) [compound 114]
INPUT: Which value of IC50 is smaller, the one for a or the one for b ? Pick one and reply with its label.
OUTPUT: b
(b: 61 nM, a: 505 nM)

====

Biological target: hT2R54 (Homo sapiens, UniProt P59534)
Construct: expressed in transfected cells; it overexpresses a promiscuous G protein
Experiment: Cell-based assay for measuring hT2R54 inhibition (FLIPR calcium, Fluo4AM, acetaminophen as bitter agonist)
Settings: Table 4; cells stably expressing hT2R54 and a promiscuous G protein; read-out: hT2R54 IC50
Description: Cells stably expressing hT2R54 and a promiscuous G protein were seeded in 384 well plates 24 hours prior to the experiment. […] Baseline was recorded for 10 seconds, then 25 μl of […] was added onto 25 μl of cells and resulting changes in fluorescence were monitored over an additional 3 minutes. […] The ability of a test compound that blocks bitter taste elicited through hT2R54 was measured in this assay, as follows. […]
Measured Attribute: IC50 (nM)

A: COc1cc2c(cc1NC(=O)CN1CCCc3cccc(F)c31)OCO2
B: CCOC(=O)C1CCN(CC(=O)Nc2cc3c(cc2C(C)=O)OCCO3)CC1
INPUT: Lab note: check whether A or B shows the higher recorded IC50. Pick one and reply with its label.
OUTPUT: A

====

Molecular target: hT2R54 (Homo sapiens, UniProt P59534)
Construct: expressed in transfected cells; it overexpresses a promiscuous G protein
Sequence (P59534 1-338): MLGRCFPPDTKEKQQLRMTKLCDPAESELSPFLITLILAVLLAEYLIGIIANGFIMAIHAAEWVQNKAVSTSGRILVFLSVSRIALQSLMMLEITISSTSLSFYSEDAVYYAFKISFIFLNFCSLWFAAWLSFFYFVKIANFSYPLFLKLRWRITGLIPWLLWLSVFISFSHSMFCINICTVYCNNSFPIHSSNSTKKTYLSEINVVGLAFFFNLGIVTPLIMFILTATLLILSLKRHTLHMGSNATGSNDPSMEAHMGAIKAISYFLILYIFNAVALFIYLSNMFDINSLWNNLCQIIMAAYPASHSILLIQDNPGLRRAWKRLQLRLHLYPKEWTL
Test: Cell-based assay for measuring hT2R54 inhibition (FLIPR calcium, Fluo4AM, acetaminophen as bitter agonist)
Details: Table 2; cells stably expressing hT2R54 and a promiscuous G protein; read-out: hT2R54 IC50
Measured Attribute: IC50 (nM)

Some molecules with known IC50 results, for comparison:
- CC(=O)c1cc2c(cc1NC(=O)CN1CCN(C(=O)[C@H]3CCCO3)CC1)OCCO2 [compound 342]: 70
- CC(=O)c1cc2c(cc1NC(=O)CN1CCN(C(=O)c3cc(C)c(C)o3)CC1)OCO2 [compound 290]: 10
- CC(=O)c1cc2c(cc1NC(=O)C(C)N1CCN(C(=O)[C@H]3CCCO3)CC1)OCO2 (some centres unmarked) [compound 317]: 200
- COc1cc2c(cc1NC(=O)CN1CCN(C(=O)c3ccoc3)CC1)OCO2 [compound 386]: 200

1: COc1cc2c(cc1NC(=O)CN1CCN(C(=O)c3ncc[nH]3)CC1)OCO2 [compound 393]
2: COCc1ccc(C(=O)N2CCN(CC(=O)Nc3cc4c(cc3C(C)=O)OCO4)CC2)o1 [compound 288]
3: CC(=O)c1cc2c(cc1NC(=O)CN1CCN(C(=O)c3cccnc3)CC1)OCCO2 [compound 326]
4: COc1cc2c(cc1NC(=O)CN1CCN(C(=O)c3cn(C)nc3C)CC1)OCO2 [compound 363]
INPUT: Hey, quick one: sort these by IC50, low to high? Your task in answering is to list the labels in the requested order.
OUTPUT: 3, 2, 1, 4
